Ref: patent US7268147B2

- tested on: human β2 adrenergic receptor (Homo sapiens, UniProt P07550)
- Sequence (P07550 whole entry): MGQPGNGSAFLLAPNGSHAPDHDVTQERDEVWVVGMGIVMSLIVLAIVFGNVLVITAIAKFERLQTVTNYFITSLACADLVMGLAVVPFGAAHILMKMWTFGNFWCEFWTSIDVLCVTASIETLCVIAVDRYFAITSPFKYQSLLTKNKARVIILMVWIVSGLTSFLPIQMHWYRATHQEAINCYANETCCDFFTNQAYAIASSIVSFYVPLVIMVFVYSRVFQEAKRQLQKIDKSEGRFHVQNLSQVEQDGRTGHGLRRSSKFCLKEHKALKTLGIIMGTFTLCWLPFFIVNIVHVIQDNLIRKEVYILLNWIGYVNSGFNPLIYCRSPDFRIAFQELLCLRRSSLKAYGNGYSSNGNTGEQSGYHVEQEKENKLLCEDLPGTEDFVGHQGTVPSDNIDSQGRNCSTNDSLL
- assay details: Cell based cAMP β2 assay (cAMP-Flashplate, CHOhβ2 cells)
- experimental parameters: CHO cells recombinantly expressing the human β2 adrenergic receptor
Kindly state pEC50 for each of the entries shown.
pEC50 (log units): -log10 of the concentration in mol/L.

Query: State its pEC50 on human β2 adrenergic receptor (Homo sapiens, UniProt P07550): Cc1ccc(CNC(=O)Cc2cccc(C[C@@H](C)NC[C@H](O)c3ccc(O)c(CO)c3)c2)cc1C
Response: 11.05

Query: Next entry: C[C@H](Cc1cccc(CC(=O)NCc2ccc(OC(F)(F)F)cc2)c1)NC[C@H](O)c1ccc(O)c(CO)c1
Response: 9.94

Query: Next entry: C[C@H](Cc1cccc(CC(=O)NC2Cc3ccccc3C2)c1)NC[C@H](O)c1ccc(O)c(CO)c1
Response: 10.92

Query: Next entry: C[C@H](Cc1cccc(CC(=O)NCc2ccc(C(N)=O)cc2)c1)NC[C@H](O)c1ccc(O)c(CO)c1
Response: 11.00

Query: Next entry: C[C@H](Cc1cccc(CC(=O)NCc2ccccc2O)c1)NC[C@H](O)c1ccc(O)c(CO)c1
Response: 11.15

Query: Next entry: C[C@H](Cc1cccc(CC(=O)NCc2ccccn2)c1)NC[C@H](O)c1ccc(O)c(CO)c1
Response: 10.55
